- target under test: T1, human B7-2 (CD86, B70) expressed on 293T cells (human, UniProt P42081 24-329)
- T1 construct: whole, on cells
- T1 sequence (looked up): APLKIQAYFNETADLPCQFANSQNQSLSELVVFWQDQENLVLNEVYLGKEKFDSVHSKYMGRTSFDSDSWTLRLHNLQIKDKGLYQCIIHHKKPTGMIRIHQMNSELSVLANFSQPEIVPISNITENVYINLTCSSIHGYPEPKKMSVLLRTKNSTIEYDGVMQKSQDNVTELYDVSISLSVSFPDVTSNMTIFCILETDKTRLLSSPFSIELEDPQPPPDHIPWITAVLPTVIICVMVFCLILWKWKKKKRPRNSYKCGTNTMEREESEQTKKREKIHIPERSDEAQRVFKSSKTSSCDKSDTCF
- experimental protocol: CDS well image, 293T cells transfected with the human gene, stained with the human fusion protein
property: binding result

human B7-1Ig fusion protein (Fc fusion, UniProt P33681 35-242, looked up, Bought from R&D Systems; Ig (Fc) part not given) VIHVTKEVKEVATLSCGHNVSVEELAQTRIYWQKEKKMVLTMMSGDMNIWPEYKNRTIFDITNNLSIVILALRPSDEGTYECVVLKYEKDAFKREHLAEVTLSVKADFPTPSISDFEIPTSNIRRIICSTSGGFPEPHLSWLENGEELNAINTTVSQDPETELYAVSSKLDFNMTTNHSFMCLIKYGHLRVNQTFNWNTTKQEHFPDN ... no binding
human ICOSIg fusion protein (Fc fusion, Bought from R&D Systems; Ig (Fc) part not given) EINGSANYEMFIFHNGGVQILCKYPDIVQQFKMQLLKGGQILCDLTKTKGSGNTVSIKSLKFCHSQLSNNSVSFFLYNLDHSHANYYFCNLSIFDPPPFKVTLTGGYLHIYESQLCCQLKF ... no binding
B7-DCIg (Fc fusion, Homo sapiens, UniProt Q9BQ51 20-219, looked up, Ig fusion protein purchased from R&D systems; also called human B7-DCIg fusion protein) fusion protein: LFTVTVPKELYIIEHGSNVTLECNFDTGSHVNLGAITASLQKVENDTSPHRERATLLEEQLPLGKASFHIPQVQVRDEGQYQCIIIYGVAWDYKYLTLKVKASYRKINTHILKVPETDEVELTCQATGYPLAEVSWPNVSVPANTSHSRTPEGLYQVTSVLRLKPPPGRNFSCVFWNTHVRELTLASIDLQSQMEPRTHP ... no binding
